The entries below are paired with their reported melting point.

{"Smiles Representation": "O=C(/C=C/c1cc(Br)cc(Br)c1)NC(=S)NNC(=O)c1cccs1", "melting point": "217 to 218 °C"}
{"Smiles Representation": "O=C(CNC(=O)COc1ccc(Br)cc1)NCc1ccc(Br)cc1", "melting point": "208 to 209 °C"}
{"Smiles Representation": "Cc1ccc(/C=C/S(=O)(=O)NCC(=O)NCc2ccc(Br)cc2)cc1", "melting point": "200 to 201 °C"}

Reported melting point for "COc1ccc(/C=C/C(=O)NC(=S)NNC(=O)Cc2cccs2)c(OC)c1" was 207 to 208 °C

Lab book: melting point of "O=C(CNC(=O)COc1ccc(F)cc1)NCc1ccccc1" noted as 165 to 166 °C

Form: molecule = "COc1ccc(NC(=O)CNC(=O)COc2ccc(Br)cc2)cc1" ; melting point = 190 to 191 °C

So, "COc1ccc(OCC(=O)NCC(=O)Nc2c(F)cccc2F)cc1" ? Its melting point was 164 to 165 °C

For this molecule ( "O=C(/C=C/c1cc(Br)cc(Br)c1)NC(=S)NNC(=O)CCc1ccccc1" ), measured melting point is 213 to 214 °C

Lookup result for "O=C(Cc1ccc(F)cc1)NNC(=S)NC(=O)Cc1c(F)cccc1F" ; measured melting point: 186 to 187 °C

Query "Cc1cccc(OCC(=O)NCC(=O)Nc2c(F)cccc2F)c1" yields melting point of 161 to 162 °C

###

Measurement Type: melting point

Please review the following examples before continuing.
{"Smiles Representation": "O=C(COc1ccc(Br)cc1)NCC(=O)Nc1c(F)cccc1F", "melting point": "173 to 174 °C"}
{"Smiles Representation": "O=C(COc1ccc(Br)cc1)NCC(=S)Nc1c(F)cccc1F", "melting point": "174 to 175 °C"}
{"Smiles Representation": "CC(C)c1ccc(/C=C/C(=O)NC(=S)NNC(=O)Cc2cccs2)cc1", "melting point": "201 to 202 °C"}

Looking up "Cc1ccc(/C=C/C(=O)NC(=S)NNC(=O)Cc2cccs2)cc1" , I see its melting point listed as 212 to 213 °C

The recorded melting point for entry "Cc1ccccc1CNC(=O)CNC(=O)COc1ccc(Br)cc1" equals 174 to 175 °C

Query "COc1ccc(NC(=O)CNC(=O)COc2ccccc2)c(C)c1" yields melting point of 165 to 166 °C

###

Reported melting point by item:

Before answering, review these 2 worked examples.
{"Smiles Representation": "COc1ccc(NC(=O)CNC(=O)COc2ccc(Cl)cc2)c(C)c1", "melting point": "170 to 171 °C"}
{"Smiles Representation": "COc1ccc(OCC(=O)NCC(=S)Nc2c(F)cccc2F)cc1", "melting point": "160 to 161 °C"}

// next item, melting point requested
In plain terms, "Cc1ccc(S(=O)(=O)NCC(=O)NCc2ccc(Br)cc2F)cc1" has a documented melting point of 123 to 124 °C

###

Measurement Type: melting point

Answered cases to consult:
{"Compound": "O=C(/C=C/c1c(F)cc(F)cc1F)NC(=S)NNC(=O)Cc1ccccc1", "Measurement Type": "melting point", "Reading": "210 to 211 °C"}
{"Compound": "O=C(CCc1ccccc1)NNC(=S)NC(=O)Cc1ccccc1", "Measurement Type": "melting point", "Reading": "88 to 90 °C"}
{"Compound": "COc1cccc(CC(=O)NNC(=S)NC(=O)/C=C/c2cc(Br)cc(Br)c2)c1", "Measurement Type": "melting point", "Reading": "202 to 203 °C"}

Consider "Cc1ccc(S(=O)(=O)NCC(=O)NCc2ccc(Br)cc2)cc1" . Its measured melting point is 207 to 208 °C

// melting point value for "COc1ccc(NC(=O)CNC(=O)COc2ccc(F)cc2)c(C)c1" : 169 to 170 °C

Input "COc1ccc(NC(=O)CNS(=O)(=O)/C=C/c2ccc(C)cc2)cc1" . Output melting point: 145 to 146 °C

Entry under test: "Cc1ccc(/C=C/S(=O)(=O)NCC(=O)Nc2ccc(Br)cc2)cc1" . Its melting point was 216 to 219 °C

The recorded melting point for "O=C(COc1ccc(Br)cc1)NCC(=O)Nc1ccc(I)cc1" is 211 to 212 °C
